molecular target: DGKα (Homo sapiens, UniProt P23743); test: DGKα biochemical assay (ADP-Glo); details: read-out: DGK α IC50
Sequence (P23743 whole entry): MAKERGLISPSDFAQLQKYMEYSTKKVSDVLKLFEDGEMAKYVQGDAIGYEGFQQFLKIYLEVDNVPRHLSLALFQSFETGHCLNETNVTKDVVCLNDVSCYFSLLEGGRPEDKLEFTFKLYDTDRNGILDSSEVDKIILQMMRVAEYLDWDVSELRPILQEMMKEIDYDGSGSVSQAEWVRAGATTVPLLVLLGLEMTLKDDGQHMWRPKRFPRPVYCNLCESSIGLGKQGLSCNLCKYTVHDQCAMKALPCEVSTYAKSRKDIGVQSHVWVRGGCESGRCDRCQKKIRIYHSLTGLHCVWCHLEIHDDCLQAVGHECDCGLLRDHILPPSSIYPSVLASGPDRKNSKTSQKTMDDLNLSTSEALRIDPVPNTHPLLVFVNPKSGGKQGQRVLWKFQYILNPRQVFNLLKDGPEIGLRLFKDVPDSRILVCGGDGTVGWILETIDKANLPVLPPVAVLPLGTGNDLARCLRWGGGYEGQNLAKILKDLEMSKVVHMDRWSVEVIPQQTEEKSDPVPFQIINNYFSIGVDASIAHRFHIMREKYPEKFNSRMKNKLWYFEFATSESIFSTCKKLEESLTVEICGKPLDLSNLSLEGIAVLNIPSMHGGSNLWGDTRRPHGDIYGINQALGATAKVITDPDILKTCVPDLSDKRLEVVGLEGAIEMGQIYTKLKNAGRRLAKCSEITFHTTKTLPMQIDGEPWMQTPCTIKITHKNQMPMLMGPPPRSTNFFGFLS
READOUT NAME: IC50

[[record]]
compound = "Cn1c(=O)c(C#N)c(N(C)[C@H]2CC[C@@H](N(CC3CCC3)c3ccc(F)cc3)CC2)c2nc(C#N)ccc21"
result = "< 0.01 µM"


I would be grateful if you could provide IC50 for each of the following entries.
1. Cn1c(=O)c(C#N)c(N(C)[C@H]2CC[C@@H](N(C[C@@H]3CCCOC3)c3ccc(F)cc3)CC2)c2nc(C#N)ccc21
2. Cn1c(=O)c(C#N)c(N(C)[C@H]2CC[C@H](N(CC3CCC3)c3cccc4c3OCO4)CC2)c2nc(C#N)ccc21

["0.01 to 0.1 µM", "0.01 to 0.1 µM"]

----------
Please consider the recorded IC50 for UniProt Q13574 in what follows.
Sequence (Q13574 1-929 isoform Q13574-4): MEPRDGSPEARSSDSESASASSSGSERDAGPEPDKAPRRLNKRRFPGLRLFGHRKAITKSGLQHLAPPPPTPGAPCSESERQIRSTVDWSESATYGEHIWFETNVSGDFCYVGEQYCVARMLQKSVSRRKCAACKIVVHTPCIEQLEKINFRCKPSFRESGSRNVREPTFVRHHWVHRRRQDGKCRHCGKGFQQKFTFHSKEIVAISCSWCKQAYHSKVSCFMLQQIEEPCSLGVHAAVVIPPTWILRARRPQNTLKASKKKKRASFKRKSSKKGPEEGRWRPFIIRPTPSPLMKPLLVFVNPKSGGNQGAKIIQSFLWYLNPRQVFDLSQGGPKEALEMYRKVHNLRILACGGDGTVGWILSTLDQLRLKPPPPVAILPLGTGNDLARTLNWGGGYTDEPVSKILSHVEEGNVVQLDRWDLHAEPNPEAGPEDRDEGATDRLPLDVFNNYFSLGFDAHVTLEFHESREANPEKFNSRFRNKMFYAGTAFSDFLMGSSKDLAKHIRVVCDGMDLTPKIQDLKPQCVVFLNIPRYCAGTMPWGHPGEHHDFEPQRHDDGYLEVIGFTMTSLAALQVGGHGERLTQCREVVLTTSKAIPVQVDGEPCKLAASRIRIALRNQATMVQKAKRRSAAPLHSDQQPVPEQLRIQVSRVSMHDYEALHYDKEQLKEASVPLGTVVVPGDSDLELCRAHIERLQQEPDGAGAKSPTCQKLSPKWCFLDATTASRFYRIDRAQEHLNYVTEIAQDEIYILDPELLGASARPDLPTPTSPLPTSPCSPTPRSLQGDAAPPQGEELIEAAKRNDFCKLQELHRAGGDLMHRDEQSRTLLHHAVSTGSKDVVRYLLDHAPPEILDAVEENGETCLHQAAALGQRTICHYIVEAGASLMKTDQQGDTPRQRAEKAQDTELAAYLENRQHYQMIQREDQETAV

In the examples that follow, each entry is paired with its recorded IC50.
[[record]]
compound = "Cn1c(=O)c(C#N)c(N(C)[C@H]2CC[C@@H](N(CC3CC3)c3cccc(F)c3)CC2)c2nc(Cl)ccc21 [Example 22]"
result = "≥ 1000 nM"

[[record]]
compound = "Cn1c(=O)c(C#N)c(N(C)[C@H]2CC[C@@H](N(CC3CC3)c3cccc(F)c3)CC2)c2nc(C#N)ccc21 [Example 26]"
result = "100 to 1000 nM"

[[record]]
compound = "CN1Cc2ccc(N(CC3CC3)[C@H]3CC[C@@H](N(C)c4c(C#N)c(=O)n(C)c5ccc(C#N)nc45)CC3)cc2C1=O [Example 204]"
result = "≥ 1000 nM"

[[record]]
compound = "O=C(N[C@H]1CC[C@@H](N(CC2CC2)c2ccccc2)CC1)c1cnn2cccnc12 [Example 4G]"
result = "≥ 1000 nM"


Go through the list and state IC50 for each entry.
1. Cn1c(=O)c(C#N)c(N(C)[C@H]2CC[C@@H](N(C[C@@H]3CCOC3)c3ccc(F)cc3)CC2)c2nc(C#N)ccc21 [Example 67]
2. Cn1c(=O)c(C#N)c(N(C)[C@H]2CC[C@@H](N(CC3CCC3)c3ccc(F)cc3C(F)F)CC2)c2nc(C#N)ccc21 [Example 180]
3. COc1cccc(N(CC2CC2)[C@H]2CC[C@@H](N(C)c3c(C#N)c(=O)n(C)c4ccc(Cl)nc34)CC2)c1 [Example 11]
4. CN(c1cc(=O)n(C)c2ccc(C#N)nc12)C1CCC(N(CC2CCC2)c2ccc(CN3CCOCC3)cc2)CC1 (single isomer, unassigned) [Example 189]
5. Cn1c(=O)c(C#N)c(N(C)[C@H]2CC[C@H](N(CC3CCC3)c3ccc(F)cc3C(F)F)CC2)c2nc(C#N)ccc21 [Example 179]
6. COc1cc(N(CC2CC2)[C@H]2CC[C@@H](N(C)c3c(C#N)c(=O)n(C)c4ccc(Cl)nc34)CC2)cc(F)c1F [Example 98]
7. Cn1c(=O)c(C#N)c(N(C)[C@H]2CC[C@H](N(CC3CCC3)c3ccc(F)cc3CO)CC2)c2nc(Cl)ccc21 [Example 154]
8. COc1cc(N(CC2CC2)[C@H]2CC[C@H](N(C)c3c(C#N)c(=O)n(C)c4ccc(Cl)nc34)CC2)ccc1F [Example 39]

1. 100 to 1000 nM
2. 100 to 1000 nM
3. 100 to 1000 nM
4. ≥ 1000 nM
5. ≥ 1000 nM
6. 100 to 1000 nM
7. ≥ 1000 nM
8. 100 to 1000 nM
